Reported kon by item:
- targetSystem: T1, human IL-12 (human, UniProt P29460 23-328; P29459 23-219)
- T1 construct: Recombinant (Peprotech); FLAG-tagged IL-12 in the flow cytometry assays, biotinylated in the IL-12Rβ2 assay; also called hIL-12
- T1 sequence 1: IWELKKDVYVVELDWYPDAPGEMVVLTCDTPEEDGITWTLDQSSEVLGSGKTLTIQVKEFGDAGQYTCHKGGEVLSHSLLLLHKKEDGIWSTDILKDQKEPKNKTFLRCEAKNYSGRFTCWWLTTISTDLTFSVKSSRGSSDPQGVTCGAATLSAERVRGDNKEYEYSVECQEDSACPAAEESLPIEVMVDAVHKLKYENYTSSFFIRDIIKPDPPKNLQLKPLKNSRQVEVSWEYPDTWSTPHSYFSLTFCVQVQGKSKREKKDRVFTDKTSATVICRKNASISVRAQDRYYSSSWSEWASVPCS
- T1 sequence 2: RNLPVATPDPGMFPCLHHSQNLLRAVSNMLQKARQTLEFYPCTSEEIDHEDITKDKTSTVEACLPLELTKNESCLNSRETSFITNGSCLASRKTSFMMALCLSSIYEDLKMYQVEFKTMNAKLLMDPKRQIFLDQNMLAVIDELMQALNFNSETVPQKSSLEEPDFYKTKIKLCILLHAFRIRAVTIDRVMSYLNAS
- protocol: SPR, IgG on Protein A
Report as a plain number; the unit M⁻¹ s⁻¹ is understood.

• Antibody 195 (antibody, human IgG1, kappa, V domains shown) VH: QVQLVQSGAEVKKPGASVKVSCKASGYTFTDYYLHWVRQAPGQGLEWMGWIDPENGDTEHAPKFQGRVTMTTDTSTSTAYMELRSLRSDDTAVYYCAANKELRYFDVWGQGTMVTVSS VL: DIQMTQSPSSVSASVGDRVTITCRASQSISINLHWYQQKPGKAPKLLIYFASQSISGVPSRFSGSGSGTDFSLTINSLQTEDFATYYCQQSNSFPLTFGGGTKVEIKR = 2.65e+06

Q: Returns the measured kon for the input binder. Input: Antibody 177 (antibody, human IgG1, kappa, V domains shown) VH: EVQLVQSGAEVKKPGATVKISCKASGYTFSDYYLHWVRQAPEKGLEWMGWIDPENGDTESAPKFQGRVTITADTSTDTGYLELSSLRSEDTAVYYCAANKELRYFDVWGQGTLVTVSS VL: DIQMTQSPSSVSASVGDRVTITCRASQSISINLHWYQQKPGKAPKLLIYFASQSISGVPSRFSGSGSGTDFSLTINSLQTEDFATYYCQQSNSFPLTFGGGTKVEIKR
Ans: 4.61e+06

Q: Returns the measured kon for the input binder. Input: Antibody 198 (antibody, human IgG1, kappa, V domains shown) VH: QVQLVQSGAEVKKPGASVKVSCKASGYAFTDYYLHWVRQAPGQGLEWMGWIDPENGDTEYAPKFQGRVTMTTDTSTSTAYMELRSLRSDDTAVYYCAANKELRYFDVWGQGTMVTVSS VL: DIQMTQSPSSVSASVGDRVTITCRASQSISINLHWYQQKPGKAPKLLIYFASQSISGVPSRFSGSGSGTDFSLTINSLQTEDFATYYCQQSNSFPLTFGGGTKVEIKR
Ans: 3.75e+06

Entry source: patent US20110262445A1
